src = ChEMBL document CHEMBL1201862

- Test system: CAKI-1
- assay: NCI tumour cell line growth inhibition, 48 h
The source made the active and inactive calls. No stated cut-off is given here; in the data, active = GI50 up to about 1.1 µM and inactive = higher.
Form entry, call: pick from T = active, F = inactive

Inquiry: Dear all, I need the recorded test outcome for "Cc1nc(C)c(C(=O)NNC(=O)C[N+](C)(C)C)cc1C(=O)NNC(=O)C[N+](C)(C)C" , thank you.
Reply text: F

Inquiry: Recorded test call requested for C=C(Br)C(C)(Cl)CCC(Br)C(C)(C)Cl (stereo unspecified)
Reply text: F

Inquiry: Each compound tested received a call. Report the one for "Cc1c2c(n3c(nc4ccccc43)c1C#N)SCC2" .
Reply text: F

Inquiry: Any idea what this test logged for "O=C(OCc1ccccc1)N(CCCCN(CCCNC(=O)C(F)(F)F)C(=O)OCc1ccccc1)CCCNC(=O)C(F)(F)F" ?
Reply text: F

Inquiry: Identify the outcome logged in this assay for the compound shown: "CC(=O)NC1=C(C)C(=O)c2c(nc3n2CC[C@H]3OC(C)=O)C1=O"
Reply text: F

Inquiry: I'd appreciate the recorded outcome for "COc1ccc(OC)c2sc(N3C(=O)/C(=C/c4ccc(N(C)C)cc4)N=C3c3ccccc3)nc12" from this test.
Reply text: F

Inquiry: Short answer needed: outcome of this test for "O=C(Nc1ccc(F)cc1)c1cc2c(cc1Cl)Sc1nccn1S2(=O)=O" ?
Reply text: F

Inquiry: # fetch the recorded call for "C/C(CCn1[nH]c(=O)ccc1=O)=N\O" here
Reply text: F

Inquiry: What outcome does the record of this test show for "COc1cc2c(cc1OC)-c1cc(OC)c(OC)cc1[C@H]1CN3CCC[C@@]3(O)C=C21" ?
Reply text: T

Inquiry: Record lookup: outcome of this test for Cc1nn(C(=O)c2ccccc2O)c2c1C(c1ccccc1O)SC(=N)N2 (stereo unspecified) ?
Reply text: F

Inquiry: Which outcome did this test record for the compound COc1nc2c(c(=O)[nH]1)N=C(c1ccc(Cl)cc1)CC(c1ccccc1)N2 (stereo unspecified) ?
Reply text: F

Inquiry: Dear all, I need the recorded test outcome for O=C1CC(c2c[nH]c3ccccc23)C(=O)N1 (stereo unspecified) , thank you.
Reply text: F

Inquiry: Would you mind telling me which call this test gave "CCCCCCOc1ccc(C(=O)N(C)O)cc1" ?
Reply text: F

Inquiry: What was the test verdict on "COC1(OC)C[C@H](C)[C@@]23O[C@]24C2=CC(=O)C=CC2=N[C@H]3C#C/C=C\C#C[C@]14O" ?
Reply text: T

Inquiry: Any idea what this test logged for "O=S(=O)(Nc1ccccc1)c1ccc(-c2c3nc(c(-c4ccc(S(=O)(=O)Nc5ccccc5)cc4)c4ccc([nH]4)c(-c4ccc(S(=O)(=O)Nc5ccccc5)cc4)c4nc(c(-c5ccc(S(=O)(=O)Nc6ccccc6)cc5)c5ccc2[nH]5)C=C4)C=C3)cc1" ?
Reply text: F

Inquiry: Per the records of this test, what outcome belongs to C=COC(=O)N1C2CCCC(Cl)(C(C)=O)C1CC2 (stereo unspecified) ?
Reply text: F

Inquiry: Short answer needed: outcome of this test for CCOC(=O)C1Nc2ccc([N+](=O)[O-])cc2[C@H]2OCC[C@@H]12 (stereo partly specified) ?
Reply text: F

Inquiry: So what was the verdict on "COc1ccc(CSC2=C(C#N)C(=O)NC3(CCCCC3)S2)cc1" in this test?
Reply text: F

Inquiry: Which result was noted for this compound in the test: "CSc1nc(NCc2ccccc2)c2cnn(COCCO)c2n1"
Reply text: F

Inquiry: Please let me know the test result on file for "Cc1ccccc1-n1c2nc(=O)n(C)c(=O)c-2nc2ccccc21" .
Reply text: F

Inquiry: Could you kindly confirm the outcome this assay logged for "Cn1nc2ccc3nccc(N(CCO)CCO)c3c2n1" ?
Reply text: F

Inquiry: Which result was noted for this compound in the test: "CCOC(=O)C1(C#N)C(C#N)(C#N)C1(C#N)C#N"
Reply text: F

Inquiry: Would you mind telling me which call this test gave "CCOC(=O)Nc1ccc(S(=O)(=O)I)cc1.CCOC(=O)Nc1ccc(S(=O)(=O)I)cc1.CN(C=O)C1=C(N(C)C=O)C(N(C)C=O)=C(N(C)C=O)C(=O)C1=O" ?
Reply text: F

Inquiry: I'd appreciate the recorded outcome for "CC(=O)O/N=C/c1c2ccccc2cc2ccccc12" from this test.
Reply text: F

Inquiry: Hi team, can someone confirm the assay call for Cc1cc2c(cc1C)C(=O)C1(C2)Cc2c(C)ccc(C)c2C1=O (stereo unspecified) ?
Reply text: F

Inquiry: Look up the recorded call for "C=C1c2nc3ccccc3n2C=C(c2ccc(OC)cc2)N1c1ccc(OCCN2CCOCC2)cc1" in this test.
Reply text: F

Inquiry: What classification did "O=C1/C(=C/c2ccccc2)CCc2ccc([N+](=O)[O-])cc21" end up with in this test?
Reply text: F

Inquiry: What classification did "Cc1cccc(C)c1NC(=O)CCc1nnc2s/c(=C\c3ccc(N(C)C)cc3)c(=O)n12" end up with in this test?
Reply text: F

Inquiry: Field: outcome | Entry: [O-][S+]1c2ccccc2N=C(c2ccc(Cl)cc2)CC1c1cccs1 (stereo unspecified)
Reply text: F

Inquiry: How was "C[C@]12CC[C@H]3[C@@H](CCC4=C(Br)C(=O)C=C[C@@]43O)[C@@H]1CCC2=O" classified in this test?
Reply text: F

Inquiry: Give the logged outcome of this assay for the following compound: "Cc1nc2ccccc2c(=O)n1/N=C(\N=N\c1cc(Cl)ccc1Cl)c1cccc(-c2ccco2)c1"
Reply text: F

Inquiry: Test call, this compound: COc1ccccc1CC(C)N (stereo unspecified)
Reply text: F

Inquiry: Can you look up the reported call for "CCSc1nnc(CSc2nc(-c3ccccc3)c(-c3ccccc3)[nH]2)n1-c1ccccc1" for me?
Reply text: F

Inquiry: # fetch the recorded call for CC(C)OP(=O)(OC(C)C)C(C(C)C)N(C)/C(N)=N/C#N (stereo unspecified) here
Reply text: F

Inquiry: Kindly provide the recorded test outcome for the following compound: "c1cnc2nc3n(c2c1)CSC3"
Reply text: F

Inquiry: Lab log entry: "Cc1ccc(C(=O)N/N=C2/C(=O)c3c4ccccc4cc4cccc2c34)cc1" — outcome as called in the assay?
Reply text: F

---

- System: IGROV-1
- assay: NCI tumour cell line growth inhibition, 48 h
Active and inactive are the calls of the source. No stated cut-off is given here; in the data, active = GI50 up to about 1.1 µM and inactive = higher.
property_measured: GI50

Inquiry: Provide only the value of recorded GI50 for CC(C)OP(=O)(OC(C)C)C(C(C)C)N(C)/C(N)=N/C#N (stereo not drawn)
Reply text: > 100 µM (inactive)

Inquiry: // fetch GI50 given entry "Cc1cn([C@H]2[C@@H](CO)C[C@H]2O)c(=O)[nH]c1=O"
Reply text: > 100 µM (inactive)

Inquiry: Read the entry "Cc1ccc(C(=O)N/N=C2/C(=O)c3c4ccccc4cc4cccc2c34)cc1" and write its reported GI50.
Reply text: 15.8 µM (inactive)

Inquiry: Please report GI50 for the following molecule: "O=C(N/N=C(COc1cccc(Cl)c1)\N=C\c1ccncc1)c1ccncc1"
Reply text: > 100 µM (inactive)

Inquiry: Given "CCCCS(=O)(=O)Nc1ccc(Nc2c3ccccc3nc3ccccc23)c(OC)c1" , respond with its GI50.
Reply text: 5.57 µM (inactive)

Inquiry: Quick one: give measured GI50 for COC1CC(OC2CCC3(C)C(=CCC4C3C(OC(C)=O)C(OC(=O)CC(C)C)C3(C)C(C(C)=O)CCC43O)C2)OC(C)C1OC1CC(OC)C(OC2CC(OC)C(OC3OC(C)C(OC4OC(CO)C(O)C(O)C4O)C(OC)C3O)C(C)O2)C(C)O1 (stereo not drawn)
Reply text: > 75 µM (inactive)

Inquiry: Item "O=c1cc(-c2ccccc2)nc2[nH]ccn12" : provide GI50
Reply text: > 10 µM (inactive)

Inquiry: Give me measured GI50, please, for this molecule: "C/C(CN1C(=O)c2ccccc2C1=O)=N\NS(=O)(=O)c1ccc(Cl)cc1"
Reply text: > 100 µM (inactive)

---

Assign GI50 to each entry below.
- System: HL-60
- assay: NCI tumour cell line growth inhibition, 48 h
Activity calls are given as the source filed them. Cut-off read from the data, not from the text of the source: active = GI50 up to about 1.1 µM and inactive = higher.

Inquiry: Indicate its recorded GI50; the compound in question is C[C@H]1CC(=O)C[C@@H]2CC[C@@H]3[C@H](CC[C@]4(C)C(OC(=O)c5cccc6c(=O)c7ccccc7[nH]c56)CC[C@@H]34)[C@]21C (stereo not given in full)
Reply text: 14.3 µM (inactive)

Inquiry: Look up and state reported GI50 for "COc1ccc(CSC2=C(C#N)C(=O)NC3(CCCCC3)S2)cc1"
Reply text: 3.63 µM (inactive)

Inquiry: Indicate the recorded GI50 value for this compound: O=C(O)CCC(NC(=O)c1ccc(Nc2nc3ccc(C(F)(F)F)cc3nc2C(=O)O)cc1)C(=O)O (stereo not given)
Reply text: > 100 µM (inactive)

Inquiry: Identify the reported GI50 for the following entry. "Clc1ccccc1C(Nc1ncccn1)Nc1ncccn1"
Reply text: > 100 µM (inactive)

Inquiry: Specify measured GI50 for "C[C@]12CC[C@H]3[C@@H](CCC4=C(Br)C(=O)C=C[C@@]43O)[C@@H]1CCC2=O" .
Reply text: 21.2 µM (inactive)
